Entries annotated with measured T/C
# System: L1210 leukemia ip in BDF1 mice, survival T/C
# Test Summary: NCI In Vivo Anticancer Drug Screen. Data for tumor model L1210 Leukemia (intraperitoneal) in B6D2F1 (BDF1) mice
# Test Parameters: endpoint: mean survival time; dose: 200.0 mg/kg/injection; schedule: Q04DX003 (ip); vehicle: saline with Tween-80; higher = longer survival
Inconclusive results and toxic doses are left out.

- Compound: "CCOC(=O)c1ccc(NC(=O)Nc2cccc(O)c2)cc1"
  Assay Metric: "T/C"
  Endpoint Result: "93 % of control"

Can you look up the measured T/C of CC(C)CCCC(C)C1CCC2(C)C3=C(C(=O)CC12C)C1(C)CCC(O)C(C)(C)C1/C(=N\O)C3=O (stereo unspecified) for me? 96 % of control

GET /values?readout=T/C&item= O=C(CCCCl)CC(O)(C(F)(F)Cl)C(F)(F)Cl 102 % of control

Which T/C is listed for O=C(Nc1ccc(Cl)cc1[N+](=O)[O-])Oc1ccc(-c2ccccc2)cc1Cl ? 103 % of control

Would you kindly share the measured T/C for Nc1ccccc1SC1CC(=O)N(c2ccc(Cl)cc2)C1=O (stereo unspecified) ? 101 % of control

GET /values?readout=T/C&item= CCCCCCCCCCCCCCCCCCNC(=S)Nc1ccccc1 90 % of control

Please give the measured T/C for this compound: Cc1ncc(CO)c(/C=N/OCc2nnc(Nc3ccccc3)s2)c1O 101 % of control

So what's the measured T/C for this one? CCCNC(=O)Nc1ccc(C)c(Cl)c1 101 % of control

Bench note: what T/C did CN(C)N=Nc1ccc(Cl)cc1C(N)=O show? 102 % of control

Item CC(C)=C(Cl)C(C)(C)C(=O)O has what recorded T/C? 101 % of control

Need T/C, item Cc1ccc(S(=O)(=O)OCC2COC(C(Cl)(Cl)Cl)O2)cc1 (stereo unspecified) 113 % of control

For Nc1ccnc2snnc12 , what is its reported T/C? 107 % of control

Entry Cc1cc(CCCC(=O)O)c(C)s1 : reported T/C = ? 104 % of control

Returns the measured T/C for the input compound. Input: CC(=O)Oc1cccc(C#N)c1 107 % of control

Would you mind telling me what T/C value was observed for O=C1CSC(=S)N1c1ccccc1 ? 93 % of control
